Target: CYP2D6 (Homo sapiens, UniProt P10635)
Sequence (P10635 whole entry): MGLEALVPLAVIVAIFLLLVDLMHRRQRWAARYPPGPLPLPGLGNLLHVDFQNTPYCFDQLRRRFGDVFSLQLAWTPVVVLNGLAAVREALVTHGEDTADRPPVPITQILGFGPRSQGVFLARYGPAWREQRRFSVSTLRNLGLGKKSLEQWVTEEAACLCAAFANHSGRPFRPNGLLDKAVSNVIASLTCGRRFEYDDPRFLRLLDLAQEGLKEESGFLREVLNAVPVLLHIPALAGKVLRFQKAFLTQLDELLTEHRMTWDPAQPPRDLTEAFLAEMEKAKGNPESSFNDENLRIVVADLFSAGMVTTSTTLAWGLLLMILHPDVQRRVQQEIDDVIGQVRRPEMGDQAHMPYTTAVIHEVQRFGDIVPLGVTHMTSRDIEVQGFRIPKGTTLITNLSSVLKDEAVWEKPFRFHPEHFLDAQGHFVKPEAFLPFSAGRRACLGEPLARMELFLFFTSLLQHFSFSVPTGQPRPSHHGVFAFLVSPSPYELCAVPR
Experiment: Cytochrome P450 inhibition, 2D6
Format: in vitro ADME
Conditions: read-out: Cytochrome P450s IC50, 2D6
measurement-name: pIC50
Lab note: report pIC50 as minus log10 of the concentration in molar units, number only.

q: # pIC50 lookup, item `CC(=O)N(C)c1cccnc1Nc1nc(-c2ccc(OC(C)C)cn2)ns1`
a: 4.52

----------
Overview of reported Human Microsomes across a group of compounds:
Assay: Liver microsome metabolic stability assay, human
Type: in vitro ADME
Conditions: 3 μM, 30 min

Below: 3 compounds and their reported Human Microsomes.
[
  {
    "mol": "Cc1cccnc1Nc1nsc(-c2ccc(OC3CCOCC3)cn2)n1",
    "Human Microsomes": "77 % remaining"
  },
  {
    "mol": "CC(C)Oc1cnc(-c2nsc(Nc3ncccc3N(C)C)n2)cc1C(F)(F)F",
    "Human Microsomes": "98 % remaining"
  },
  {
    "mol": "Cc1cccnc1Nc1n[nH]c(-c2ccc(OC3CCOCC3)cn2)n1",
    "Human Microsomes": "92 % remaining"
  }
]

Consider the additional compound presented here.
q: # Human Microsomes lookup, item `CC(C)Oc1cnc(-c2nsc(Nc3ncccc3C(C)C)n2)cc1C(F)(F)F`
a: 97 % remaining

----------
Biological target: hERG potassium channels (KCNH2, expressed in HEK293 cells) (Homo sapiens, UniProt Q12809)
Construct: expressed in transfected cells
Sequence (Q12809 whole entry): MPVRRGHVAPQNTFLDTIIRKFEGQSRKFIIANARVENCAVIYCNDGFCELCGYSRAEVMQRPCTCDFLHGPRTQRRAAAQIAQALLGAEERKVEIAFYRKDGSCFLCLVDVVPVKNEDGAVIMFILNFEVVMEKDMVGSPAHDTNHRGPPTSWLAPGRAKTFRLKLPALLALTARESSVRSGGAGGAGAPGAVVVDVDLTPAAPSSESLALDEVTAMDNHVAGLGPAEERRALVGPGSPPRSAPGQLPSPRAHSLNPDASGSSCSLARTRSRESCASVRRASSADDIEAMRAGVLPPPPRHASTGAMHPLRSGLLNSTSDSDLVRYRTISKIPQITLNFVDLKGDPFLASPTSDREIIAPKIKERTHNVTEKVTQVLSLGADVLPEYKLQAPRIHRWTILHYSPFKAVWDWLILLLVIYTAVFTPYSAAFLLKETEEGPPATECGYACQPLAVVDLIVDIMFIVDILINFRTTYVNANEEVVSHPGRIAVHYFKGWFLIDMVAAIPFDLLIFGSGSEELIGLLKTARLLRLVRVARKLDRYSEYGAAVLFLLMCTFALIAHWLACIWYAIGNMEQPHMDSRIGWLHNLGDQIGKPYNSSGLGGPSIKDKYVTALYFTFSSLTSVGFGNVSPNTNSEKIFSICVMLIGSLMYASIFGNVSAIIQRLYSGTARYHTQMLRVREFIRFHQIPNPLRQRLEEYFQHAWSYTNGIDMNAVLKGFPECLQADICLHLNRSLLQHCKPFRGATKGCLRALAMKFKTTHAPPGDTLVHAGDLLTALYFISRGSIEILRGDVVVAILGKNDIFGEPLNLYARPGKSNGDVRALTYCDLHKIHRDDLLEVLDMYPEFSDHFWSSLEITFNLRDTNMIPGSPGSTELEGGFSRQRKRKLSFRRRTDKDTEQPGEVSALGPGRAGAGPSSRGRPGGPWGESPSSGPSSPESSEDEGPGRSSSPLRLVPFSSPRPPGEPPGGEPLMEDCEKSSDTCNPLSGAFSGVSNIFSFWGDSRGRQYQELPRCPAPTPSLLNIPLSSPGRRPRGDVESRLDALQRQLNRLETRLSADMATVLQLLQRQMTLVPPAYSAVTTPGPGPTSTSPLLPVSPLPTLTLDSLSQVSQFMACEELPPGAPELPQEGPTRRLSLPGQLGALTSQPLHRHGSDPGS
Assay: hERG inhibition
Type: cell-based
Settings: supplement
measurement-name: IC50

Below: 4 molecules and their reported IC50.
[
  {
    "mol": "CC(C)Oc1ccc(-c2nsc(Nc3ncccc3C(=O)N(C)C)n2)nc1",
    "observed-result": "> 30 µM"
  },
  {
    "mol": "CC(C)Oc1ccc(-c2nsc(Nc3ncccc3C(N)=O)n2)nc1",
    "observed-result": "> 30 µM"
  },
  {
    "mol": "CC(=O)N(C)c1cccnc1Nc1nc(-c2cc(C(F)(F)F)c(OC(C)C)cn2)ns1",
    "observed-result": "26 µM"
  },
  {
    "mol": "CC(C)Oc1ccc(-c2nsc(Nc3ncccc3N(C)C)n2)nc1",
    "observed-result": "8 µM"
  }
]

Consider the additional molecule presented here.
q: // fetch hERG potassium channels (KCNH2, expressed in HEK293 cells) (Homo sapiens, UniProt Q12809) IC50 for `CC(=O)N(C)c1cc(C(F)(F)F)cnc1Nc1nc(-c2ccc(OC(C)C)cn2)ns1`
a: > 30 µM

----------
Overview of reported Vd across a group of molecules:
Test: Mouse pharmacokinetics
Assay type: in vivo
Settings: in vivo; male CD-1 mouse, IV 2 mg/kg; read-out: Vdss
The reply should contain only the number, in L/kg.

[
  {
    "mol": "CC(=O)N(C)c1cccnc1Nc1nc(-c2ccc(OC(C)C)cn2)ns1",
    "measurement-name": "Vd",
    "observed-result": 0.74
  }
]

Consider the additional molecule presented here.
q: # Vd lookup, item `CC(C)Oc1ccc(-c2nsc(Nc3ncccc3N(C)C)n2)nc1`
a: 3.01

----------
Test: Mouse pharmacokinetics
Format: in vivo
Conditions: plasma; male CD-1 mouse, PO 10 mg/kg suspension; read-out: Tmax
Overview of reported Tmax across a group of compounds:
The reply should contain only the number, in h.

q: # Tmax lookup, item `CC(C)Oc1ccc(-c2nsc(Nc3ncccc3N(C)C)n2)nc1`
a: 0.5

q: # Tmax lookup, item `CC(=O)N(C)c1cccnc1Nc1nc(-c2ccc(OC(C)C)cn2)ns1`
a: 4

Data origin: paper PMC9421654
